# measurement-notes: Solubility of the lowest energy crystalline form of Drug A in water
# Format: physicochemical
# applied-conditions: lowest energy crystalline form presently known
# Experimental: Drug A is an MTP inhibitor intended for the treatment of obesity. The solubility of the lowest energy crystalline form of Drug A presently known in water is less than 0.6 μg/ml. Drug A is nonionizable, and has a cLog P of about 7.8. These characteristics contribute to its water insoluble nature.

| structure-smiles | solubility |
| --- | --- |
| CN(Cc1ccccc1)C(=O)[C@@H](NC(=O)c1cc2cc(NC(=O)c3ccccc3-c3ccc(C(F)(F)F)cc3)ccc2n1C)c1ccccc1 | < 0.6 µg/mL |

Reference for the values: patent US20080293801A1
